// provenance: the supplement of paper PMC11208160

- experiment notes: recombinant UMI read abundance after kanamycin selection (control-corrected) (log10(CPM+1)); higher = more efficient recombination; extreme values may be limits of the assay; sequences stand for … in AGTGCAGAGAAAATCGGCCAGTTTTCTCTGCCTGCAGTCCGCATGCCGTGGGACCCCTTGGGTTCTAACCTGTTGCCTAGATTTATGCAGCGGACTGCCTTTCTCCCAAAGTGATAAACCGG…AGGTTGGTTTCACT; site = the 11-nt donor;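 further: IS621 bridge recombinase in Escherichia coli cells against a fixed T5 target plasmid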
attribute measured: recombinant UMI read abundance (log10)

> print(dat)
                              sequence.chain    value
 1  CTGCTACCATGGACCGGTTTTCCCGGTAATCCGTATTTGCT (site CTGCTAGCTAG)        0
 2  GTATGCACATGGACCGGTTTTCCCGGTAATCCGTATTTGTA (site GTTTGCACTTA)        0
 3  CCAGGTGCATGGACCGGTTTTCCCGGTAATCCGTATTTGTT (site CCAGGTGCTAG)     1.42
 4  GGTAATCCATGGACCGGTTTTCCCGGTAATCCGTATTTGTT (site GGTAATCCTAA)    0.518
 5  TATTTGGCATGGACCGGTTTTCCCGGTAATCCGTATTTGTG (site TCTTTGGCTCA)  0.00921
 6  GGAGTAGCATGGACCGGTTTTCCCGGTAATCCGTATTTGGT (site GGAGTGGCTAC)     0.49
 7  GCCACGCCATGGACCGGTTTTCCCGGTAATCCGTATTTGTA (site GCCACGACTTA)  0.00736
 8  TGCTAGTCATGGACCGGTTTTCCCGGTAATCCGTATTTGGT (site TGCTAGTCTAC)     1.07
 9  GAAGGGCCATGGACCGGTTTTCCCGGTAATCCGTATTTGCA (site GAACGGCCTTG)        0
10  CAAGTCACATGGACCGGTTTTCCCGGTAATCCGTATTTGAG (site CAAGTCACTCT)     1.82
11  TGGGAACCATGGACCGGTTTTCCCGGTAATCCGTATTTGAT (site TGGGAACCTAT)  0.00982
12  GTGGAGGCATGGACCGGTTTTCCCGGTAATCCGTATTTGTT (site GTGGAGGCTTA)    0.938
13  GGCGCAGCATGGACCGGTTTTCCCGGTAATCCGTATTTGGT (site GGCGCAGCTAC)    0.482
14  AATCACGCATGGACCGGTTTTCCCGGTAATCCGTATTTGGG (site AAGCACGCTCC)   0.0135
15  CCTATAGCATGGACCGGTTTTCCCGGTAATCCGTATTTGAT (site CCTAGAGCTAT)   0.0174
16  CATCGCCCATGGACCGGTTTTCCCGGTAATCCGTATTTGGT (site CATCGCCCTAC)    0.296
17  AATTTGTCATGGACCGGTTTTCCCGGTAATCCGTATTTGAT (site AATTTGTCTAT)    0.517
18  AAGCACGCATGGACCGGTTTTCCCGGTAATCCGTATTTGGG (site AGGCACGCTCC)   0.0204
